Target: FGFR3 enzyme (Millipore) (Homo sapiens (Human), UniProt P22607)
Sequence (P22607 23-806): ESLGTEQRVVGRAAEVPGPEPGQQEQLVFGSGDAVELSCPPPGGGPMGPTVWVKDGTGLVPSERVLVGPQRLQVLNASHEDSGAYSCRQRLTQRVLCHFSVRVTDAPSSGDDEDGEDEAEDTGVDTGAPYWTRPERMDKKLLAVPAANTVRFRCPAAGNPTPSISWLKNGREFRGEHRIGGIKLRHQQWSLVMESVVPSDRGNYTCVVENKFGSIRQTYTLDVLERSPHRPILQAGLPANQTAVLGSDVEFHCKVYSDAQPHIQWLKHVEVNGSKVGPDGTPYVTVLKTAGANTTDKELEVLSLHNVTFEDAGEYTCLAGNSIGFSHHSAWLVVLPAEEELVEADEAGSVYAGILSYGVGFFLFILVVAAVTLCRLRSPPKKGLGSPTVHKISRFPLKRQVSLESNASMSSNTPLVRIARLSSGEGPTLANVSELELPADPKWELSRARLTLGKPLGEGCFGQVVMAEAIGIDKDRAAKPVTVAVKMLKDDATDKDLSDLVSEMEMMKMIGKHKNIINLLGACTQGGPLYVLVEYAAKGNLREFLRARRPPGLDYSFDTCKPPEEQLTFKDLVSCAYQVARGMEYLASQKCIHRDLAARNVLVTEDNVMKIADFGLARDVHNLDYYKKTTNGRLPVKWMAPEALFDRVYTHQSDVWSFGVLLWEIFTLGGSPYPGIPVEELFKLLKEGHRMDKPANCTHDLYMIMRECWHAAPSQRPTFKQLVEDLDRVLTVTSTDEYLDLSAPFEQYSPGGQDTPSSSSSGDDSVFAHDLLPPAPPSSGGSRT
Conditions: read-out: FGFR3 IC50; ATP 140 μM; numeric bounds

Cpd smiles | IC50
CCN(CC)CC#Cc1cc2nc(CCc3cc(OC)cc(OC)c3)cnc2[nH]1 | > 2000 nM
COc1cc(CCc2cnc3[nH]c(-c4cnc(N(C)C)nc4)cc3n2)cc(OC)c1 | > 1000 nM
COc1cc(CCc2cnc3[nH]c(C(=O)N(C)C)cc3n2)cc(OC)c1 | > 2000 nM
COc1cc(CCc2cnc3[nH]c(C4CCN(C)CC4)cc3n2)cc(OC)c1 | > 2000 nM
COc1cc(CCc2cnc3[nH]c(-c4ccc5c(c4)OCO5)cc3n2)cc(OC)c1 | > 2000 nM
COc1cc(CCc2cnc3[nH]c(-c4cnc5nccnc5c4)cc3n2)cc(OC)c1 | > 2000 nM
CCN(CC)CCCc1cc2nc(CCc3cc(OC)cc(OC)c3)cnc2[nH]1 | > 2000 nM
CNC(=O)c1cc2nc(CCc3c(F)c(OC)cc(OC)c3F)cnc2[nH]1 | > 400 nM
CNC(=O)c1cc2nc(CCc3cc(OC)cc(OC)c3)cnc2[nH]1 | > 2000 nM

---

Target: UniProt P22607
Test: biochemical
pIC50: −log10 of the molar value.

Cpd smiles | pIC50
COc1cc(CCc2cnc3[nH]c(-c4c(F)cccc4F)cc3n2)cc(OC)c1 | 5.57 to 6.30
COc1cc(CCc2cnc3[nH]c(-c4cn[nH]c4)cc3n2)cc(OC)c1 | 6.30 to 7.00
COc1cc(CCc2cnc3[nH]c(-c4ccnc(N5CCN(C)CC5)c4)cc3n2)cc(OC)c1 | 6.30 to 7.00
COc1cc(CCc2cnc3[nH]c(-c4ccc(NC(C)=O)cc4)cc3n2)cc(OC)c1 | 6.30 to 7.00
COc1cc(CCc2cnc3[nH]c(-c4cnn(CC(=O)N(C)C)c4)cc3n2)cc(OC)c1 | 6.30 to 7.00
COc1cc(CCc2cnc3[nH]c(-c4cnn(C5CCN(C)CC5)c4)cc3n2)cc(OC)c1 | 6.30 to 7.00
COc1cc(CCc2cnc3[nH]c(-c4ccc(C(F)(F)F)cc4)cc3n2)cc(OC)c1 | 6.30 to 7.00
COc1cc(CCc2cnc3[nH]c(-c4ccc(F)c(C(=O)N(C)C)c4)cc3n2)cc(OC)c1 | 6.30 to 7.00
COc1cc(CCc2cnc3[nH]c(-c4ccc5cnn(C)c5c4)cc3n2)cc(OC)c1 | 6.30 to 7.00
COc1cc(CCc2cnc3[nH]c(-c4cnn(CCN5CCN(C)CC5)c4)cc3n2)cc(OC)c1 | 6.30 to 7.00
COc1cc(CCc2cnc3[nH]c(-c4ccccc4C)cc3n2)cc(OC)c1 | 5.57 to 6.30
